# Test name: qHTS Assay for Lipid Storage Modulators (AID 1519)
# Test conditions: Drosophila S3 cells, BODIPY lipid droplet/cell ratio, laser cytometry; measured here: cell count channel max response; cells loaded with oleic acid
Records with an inconclusive call do not appear.
Property name: max response (%)
State just the number; it will be interpreted in %.

INPUT: # get_value(readout='max response', item= `CO[C@H]1[C@@H](OC(N)=O)[C@H](O)[C@@H](Oc2ccc3c(O)c(NC(=O)c4ccc(O)c(CC=C(C)C)c4)c(=O)oc3c2C)OC1(C)C` )
OUTPUT: -8.07

INPUT: # get_value(readout='max response', item= `C#C[C@]1(O)CC[C@@H]2[C@H]3CCC4=Cc5oncc5C[C@]4(C)[C@@H]3CC[C@@]21C` )
OUTPUT: -23.2

INPUT: # get_value(readout='max response', item= `Cc1cn([C@@H]2C[C@H](N=[N+]=N)[C@H](CO)O2)c(=O)[nH]c1=O` )
OUTPUT: -19.5

INPUT: # get_value(readout='max response', item= Nc1nc2c(nc(Br)n2C2CC(O)C(CO)O2)c(=O)[nH]1 (configuration not stated) )
OUTPUT: 4.93

INPUT: # get_value(readout='max response', item= `CC(=O)N[C@H](Cc1c[nH]c2ccccc12)C(N)=O` )
OUTPUT: 3.77

INPUT: # get_value(readout='max response', item= `O=C(O)[C@@H](O)[C@@H](O)[C@@H](O[C@H]1O[C@@H](CO)[C@@H](O)[C@@H](O)[C@@H]1O)[C@@H](O)CO` )
OUTPUT: 12.1

INPUT: # get_value(readout='max response', item= CC1CC[C@]2(CO)CC[C@]3(C)C(=CCC4[C@@]5(C)CCC(O)C(C)(C)C5CC[C@@]43C)C2C1C (some centres not stated) )
OUTPUT: 4.46

INPUT: # get_value(readout='max response', item= C[C@]12C=CC(=O)C=C1CCC1C2C(O)C[C@]2(C)C1CC[C@]2(O)C(=O)CO (some centres not stated) )
OUTPUT: 19.1

INPUT: # get_value(readout='max response', item= C[C@]12C=CC(=O)C=C1CCC1C2C(=O)C[C@]2(C)C1CC[C@]2(O)C(=O)CO (some centres not stated) )
OUTPUT: 19.1

INPUT: # get_value(readout='max response', item= CC(=O)OC1CC2C(C)(C)C(=O)C3OC3[C@]2(C)C2CC[C@@]3(C)C(c4ccoc4)OC(=O)C4OC43[C@]12C (some centres not stated) )
OUTPUT: -15.4

INPUT: # get_value(readout='max response', item= COc1cc(C(=O)OC2CC[C@]3(C)C4CCC5[C@]6(O)CC(O)[C@]7(O)C(CN8CC(C)CCC8[C@]7(C)O)[C@]6(O)C[C@@]53O[C@]24O)cc(OC)c1OC (some centres not stated) )
OUTPUT: 17.4

INPUT: # get_value(readout='max response', item= `N[C@H](Cc1cc(I)c(Oc2cc(I)c(O)c(I)c2)c(I)c1)C(=O)O` )
OUTPUT: 20.1

INPUT: # get_value(readout='max response', item= `CO[C@H]1[C@H](O[C@H]2O[C@@H](C)[C@@H](O[C@@H]3C[C@](C)(O)[C@H](OC(=O)CC(C)C)[C@H](C)O3)[C@@H](N(C)C)[C@@H]2O)[C@@H](CC=O)C[C@@H](C)[C@@H](O)/C=C\C=C/C[C@@H](C)OC(=O)C[C@H]1OC(C)=O` )
OUTPUT: -10.5

INPUT: # get_value(readout='max response', item= `OC[C@@H](O)CN1CCN(c2ccccc2)CC1` )
OUTPUT: -9.92

INPUT: # get_value(readout='max response', item= CC(Oc1ccccc1)C(=O)NC1C(=O)N2C(C(=O)O)C(C)(C)S[C@@H]12 (some centres not stated) )
OUTPUT: 11.7

INPUT: # get_value(readout='max response', item= `CC(=O)N[C@@H](CC(=O)O)C(=O)O` )
OUTPUT: -3.12

INPUT: # get_value(readout='max response', item= `CO[C@]1(NC(=O)Cc2cccs2)C(=O)N2C(C(=O)O)=C(COC(N)=O)CS[C@H]21` )
OUTPUT: -2.6
